Attribution: the RNAGym collection of RNA variant scans (doi:10.7554/elife.80360)

B1: HDV Ribozyme (parent)
chain: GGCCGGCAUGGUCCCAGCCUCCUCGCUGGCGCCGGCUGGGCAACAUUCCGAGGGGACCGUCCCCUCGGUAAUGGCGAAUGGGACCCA

Variants of: B1
assay-method-text: self-cleavage, relative activity (ratio to wild type); higher = more cleavage; co-transcriptional
Listed below: self-cleavage values for each entry.
readout: self-cleavage

construct-sequence	recorded-result
GGCCGGCAUGGUCCCAGCCUCCUCGCUGGAGCCGGCUGGGCAACAUUCCGAGGGGAACGUCCCCUCGGUAAUGGCGAAUGGGACCCA [C30A C57A]	0.688
GGCUGGCAUGGUCCCAGCCUCCUCGCUGGCGCCGGCUGGGCAACAUUCCGAGGGGCCCGUCCCCUCGGUAAUGGCGAAUGGGACCCA [C4U A56C]	0.522
GGGCGGCAAGGUCCCAGCCUCCUCGCUGGCGCCGGCUGGGCAACAUUCCGAGGGGACCGUCCCCUCGGUAAUGGCGAAUGGGACCCA [C3G U9A]	0.799
GGCCGGCAUGGUCCCAGCCUCCUCGCUGGCGCCGGAUGGGCAACCUUCCGAGGGGACCGUCCCCUCGGUAAUGGCGAAUGGGACCCA [C36A A45C]	0
GGCCGGCAUAGUCCCAGCCUCCUCGCUGGCGCUGGCUGGGCAACAUUCCGAGGGGACCGUCCCCUCGGUAAUGGCGAAUGGGACCCA [G10A C33U]	0.554
GGCCGGAAUGGUCCCAGCCUCCUAGCUGGCGCCGGCUGGGCAACAUUCCGAGGGGACCGUCCCCUCGGUAAUGGCGAAUGGGACCCA [C7A C24A]	0.125
GGCCGGCAUGGUCCCAGUCUGCUCGCUGGCGCCGGCUGGGCAACAUUCCGAGGGGACCGUCCCCUCGGUAAUGGCGAAUGGGACCCA [C18U C21G]	0.151
GGCCGGCAUGGUCCCAGCCUCCUCGCUGGCGCCGGCUGGGAAACAUUCCGAGGGGACCGUCCCAUCGGUAAUGGCGAAUGGGACCCA [C41A C64A]	0.794
GACCGGCAUGGUCCCAGCCUCCUCGCUGGCGCCGGCUGGGCAACAAUCCGAGGGGACCGUCCCCUCGGUAAUGGCGAAUGGGACCCA [G2A U46A]	0.0601
GGCCGGCAUGGUCCCAGCCUCCUCGCUGGCGCCGGCUGGGCAACGUUCCGAGCGGACCGUCCCCUCGGUAAUGGCGAAUGGGACCCA [A45G G53C]	1.05
GGCCGGGAUGGUCCCAGCCUCCUCGCUGGCGCCGGCUGGGCAACAUUCCGAGGGGACCGUCCCCUCGGUAAUGGCGAACGGGACCCA [C7G U79C]	0.0489
GGCCGGCAUGGUCCCAGCCUACUCGCUGGCGCCGGCUGGGCAACAUUCCGAGGGGACCGUCCCCUCGGUAAUGGCGAAUGGGGCCCA [C21A A83G]	0.0519
GGCCGGCAUGGUCCCAGCCUCCUCGCUGGCGCGGGCUGGGCAACAUUCCGAGGGGACCGUGCCCUCGGUAAUGGCGAAUGGGACCCA [C33G C61G]	0.19
GGCCGGCAUGGUCCCAGCCUCCUCGCUGGCCCCGGCUGGGCAAUAUUCCGAGGGGACCGUCCCCUCGGUAAUGGCGAAUGGGACCCA [G31C C44U]	0.106
